Target: JAK3 (Homo sapiens, UniProt P52333)
Sequence (P52333 1-1124): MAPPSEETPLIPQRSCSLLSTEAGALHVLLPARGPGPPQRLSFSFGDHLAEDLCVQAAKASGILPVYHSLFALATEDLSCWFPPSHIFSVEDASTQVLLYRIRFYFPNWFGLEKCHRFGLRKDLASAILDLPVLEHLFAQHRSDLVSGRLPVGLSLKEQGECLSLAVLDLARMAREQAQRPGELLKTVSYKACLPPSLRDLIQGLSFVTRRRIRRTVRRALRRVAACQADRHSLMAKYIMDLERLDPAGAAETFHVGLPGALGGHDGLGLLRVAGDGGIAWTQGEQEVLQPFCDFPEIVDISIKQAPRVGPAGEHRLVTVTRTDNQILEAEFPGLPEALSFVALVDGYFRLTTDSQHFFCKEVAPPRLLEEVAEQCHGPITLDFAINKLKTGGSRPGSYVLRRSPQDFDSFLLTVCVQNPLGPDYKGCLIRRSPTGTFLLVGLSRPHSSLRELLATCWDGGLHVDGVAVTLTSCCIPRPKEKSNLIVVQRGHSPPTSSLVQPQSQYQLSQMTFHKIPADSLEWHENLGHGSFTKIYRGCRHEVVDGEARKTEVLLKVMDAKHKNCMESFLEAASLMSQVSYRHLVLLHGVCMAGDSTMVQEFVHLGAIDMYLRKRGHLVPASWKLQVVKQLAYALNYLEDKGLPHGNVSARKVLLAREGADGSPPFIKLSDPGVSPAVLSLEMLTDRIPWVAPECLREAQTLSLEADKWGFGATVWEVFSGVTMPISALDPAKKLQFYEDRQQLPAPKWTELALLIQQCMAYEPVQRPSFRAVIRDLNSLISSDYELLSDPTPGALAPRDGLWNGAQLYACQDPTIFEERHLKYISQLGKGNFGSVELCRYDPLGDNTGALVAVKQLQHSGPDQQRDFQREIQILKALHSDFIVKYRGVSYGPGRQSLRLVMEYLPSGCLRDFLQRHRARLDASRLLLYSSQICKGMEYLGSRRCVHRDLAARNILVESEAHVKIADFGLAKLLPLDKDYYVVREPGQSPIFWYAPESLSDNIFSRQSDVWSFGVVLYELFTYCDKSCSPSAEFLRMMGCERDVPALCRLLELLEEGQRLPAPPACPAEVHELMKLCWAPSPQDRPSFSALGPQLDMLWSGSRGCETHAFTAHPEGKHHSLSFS
measurement-name: IC50 (nM)
Report only the number, with the unit nM understood.

Query :: Quick check: IC50 of C=CC(=O)N1CCC[C@@H](n2nc(-c3ccc(OCc4cccc(C)n4)c(Cl)c3)c3c(N)ncnc32)C1 ?
Result :: 30.6

###

Assay: Pharmacokinetic properties in rats
Format: in vivo
Details: rat, in vivo, iv, I.V (1mg/kg)
measurement-name: AUC(0-t) (µg·h/mL)
// units = µg·h/mL; emit number, no label

Query :: Item under review: C=CC(=O)N1CCC[C@@H](n2nc(-c3ccc(OCc4cccc(C)n4)c(Cl)c3)c3c(N)ncnc32)C1 . Reported AUC(0-t)?
Result :: 1.19

###

Target: BLK (Homo sapiens, UniProt P51451)
Sequence (P51451 whole entry): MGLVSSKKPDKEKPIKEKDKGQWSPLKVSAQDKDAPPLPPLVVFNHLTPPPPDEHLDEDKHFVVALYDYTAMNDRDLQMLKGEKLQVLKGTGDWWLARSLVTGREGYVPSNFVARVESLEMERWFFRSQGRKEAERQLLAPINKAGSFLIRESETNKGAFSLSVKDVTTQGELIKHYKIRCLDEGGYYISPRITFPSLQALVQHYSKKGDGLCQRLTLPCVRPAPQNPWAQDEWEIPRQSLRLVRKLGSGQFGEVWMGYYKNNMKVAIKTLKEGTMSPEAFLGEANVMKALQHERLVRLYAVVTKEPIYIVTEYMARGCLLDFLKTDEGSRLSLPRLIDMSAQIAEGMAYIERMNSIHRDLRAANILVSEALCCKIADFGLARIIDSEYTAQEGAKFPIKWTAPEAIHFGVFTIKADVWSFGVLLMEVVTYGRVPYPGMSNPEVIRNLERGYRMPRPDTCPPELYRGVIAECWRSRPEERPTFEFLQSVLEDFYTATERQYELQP
measurement-name: pIC50
In plain terms, pIC50 is the concentration in mol/L turned into minus its base-10 logarithm.

Query :: So what pIC50 did C=CC(=O)N1CCC[C@@H](n2nc(-c3ccc(OCc4cccc(C)n4)c(Cl)c3)c3c(N)ncnc32)C1 get with BLK (Homo sapiens, UniProt P51451)?
Result :: 8.41
